Could you please report measured crop damage rating CORN for the items listed next?
# Tested on: field corn (Zea mays L., var. Dekalb 535, CORN)
# procedureText: Pre-emerge greenhouse test, crop damage rating
# Assay type: in vivo
# assayConditions: 125 g ai/ha, 14 days after application, rating scale 0-100
One number for each entry.

O=c1sc(=Nc2cc(Oc3ncccn3)c(Cl)cc2F)n2n1CCCC2 ... 45
Cn1nc(-c2cc(Oc3ncccc3C#N)c(Cl)cc2F)c(Cl)c1C(F)(F)F ... 0
CC(=O)Nc1ccc(Oc2cc(-n3c(=O)n4n(c3=S)CCCC4)c(F)cc2Cl)c(C(F)(F)F)c1 ... 0

// below: crop damage rating CORN requested for another compound
Per the records, this compound ( N#Cc1cc([N+](=O)[O-])ccc1Oc1cc(-n2c(=O)n3n(c2=S)CCCC3)c(F)cc1Cl ) has crop damage rating CORN equal to 0

---

# System: field corn (Zea mays L., var. Dekalb 535, CORN)
# procedureText: Pre-emerge greenhouse test, crop damage rating
# Format: in vivo
# assayConditions: 500 g ai/ha, 14 days after application, rating scale 0-100
// assign criterion met if crop damage rating CORN falls strictly below 5, else criterion not met (ties count as criterion not met)

# example entries with known answers
O=c1n(CCCF)nnn1-c1cc(Oc2ncc(Br)cn2)c(Cl)cc1F ... criterion not met
O=C1C2=CCCCN2C(=O)N1c1cc(Oc2ncccc2C(F)(F)F)c(Cl)cc1F ... criterion met

Strictly below 5: is that where crop damage rating CORN of Cn1c(C(F)(F)F)nc(-c2cc(Oc3ncccn3)c(Cl)cc2F)c1Cl sits?
criterion not met

Strictly below 5: is that where crop damage rating CORN of Cc1nsc(Oc2cc(-n3nnn(CCCF)c3=O)c(F)cc2Cl)c1[N+](=O)[O-] sits?
criterion met

Strictly below 5: is that where crop damage rating CORN of O=c1n(CCCF)nnn1-c1cc(Oc2ncccc2C(F)(F)F)c(Cl)cc1Cl sits?
criterion not met

Strictly below 5: is that where crop damage rating CORN of O=c1n(CCCF)nnn1-c1cc(Oc2ccc(C(F)(F)F)cn2)c(Cl)cc1Cl sits?
criterion met

---

# System: field corn (Zea mays L., var. Dekalb 535, CORN)
# procedureText: Post-emerge greenhouse test, crop damage rating
# Type: in vivo
# assayConditions: rate 63 g ai/ha, 14 days after application, scale 0-100
# Protocol: A standard greenhouse herbicide activity screening system was used to evaluate the herbicidal efficacy and crop safety of these test compounds. […] At 14 days after application of the test materials, phytotoxicity ratings were recorded. […]
assayMetric: crop damage rating CORN

Illustrative cases are given below, each with its answer.
O=c1n(-c2cc(Oc3cccc(F)n3)c(Cl)cc2F)c(=S)n2n1CCCC2 [Compound 8-25] ... 10
O=c1n(-c2cc(Oc3ccccn3)c(Cl)cc2F)c(=S)n2n1CCCC2 [Compound 8-17] ... 20
N#Cc1ccc(Oc2cc(-n3c(=O)n4n(c3=S)CCCC4)c(F)cc2Cl)nc1 [Compound 8-22] ... 53

// below: crop damage rating CORN requested for another compound
Per the records, this compound ( COc1nc(OC)nc(Oc2cc(-n3c(=O)n4n(c3=S)CCCC4)c(F)cc2Cl)n1 [Compound 8-34] ) has crop damage rating CORN equal to 5

---

Could you please report measured CORN crop damage rating for the items listed next?
# Test system: field corn (Zea mays L., var. Dekalb 535, CORN)
# procedureText: Pre-emerge greenhouse test, crop damage rating
# Assay type: in vivo
# assayConditions: Rate 125 g al/ha, 14 days after application, rating scale 0-100
Answers are plain numbers.

Give CORN crop damage rating for all compounds that follow.
1. N#Cc1cccnc1Oc1cc(-n2c(=O)n3n(c2=S)CCCC3)c(F)cc1Cl
2. Nn1c(C(F)(F)F)cc(=O)n(-c2cc(Oc3cccc(F)n3)c(Cl)cc2F)c1=O

5
60

Give CORN crop damage rating for all compounds that follow.
1. CSc1cccnc1Oc1cc(-n2c(=O)n3n(c2=S)CCCC3)c(F)cc1Cl
2. O=c1n(-c2cc(Oc3ncc([N+](=O)[O-])s3)c(Cl)cc2F)c(=S)n2n1CCCC2
3. O=c1n(-c2cc(Oc3nccc(Cl)n3)c(Cl)cc2F)c(=S)n2n1CCCC2
4. O=c1n(-c2cc(Oc3nc(F)c(F)cc3F)c(Cl)cc2F)c(=S)n2n1CCCC2
5. Nn1c(C(F)(F)F)cc(=O)n(-c2cc(Oc3cccc(C(F)(F)F)c3)c(Cl)cc2F)c1=O
6. COc1cc(Oc2cc(-n3c(=O)n4n(c3=S)CCCC4)c(F)cc2Cl)nc(OC)n1

0
0
0
15
20
0

---

# Tested on: soybean (Glycine max L., var. Pella 86, SOY)
# procedureText: Pre-emerge greenhouse test, crop damage rating
# Format: in vivo
# assayConditions: 500 g ai/ha, 14 days after application, rating scale 0-100
Could you please report measured crop damage rating SOY for the items listed next?
One number for each entry.

Illustrative cases are given below, each with its answer.
O=c1n(CCCF)nnn1-c1cc(Oc2ncccc2[N+](=O)[O-])c(Cl)cc1Cl [Compound 6-3] ... 0
O=c1n(CCCF)nnn1-c1cc(Oc2ncccc2C(F)(F)F)c(Cl)cc1Cl [Compound 6-7] ... 90
Cn1c(C(F)(F)F)nc(-c2cc(Oc3ncccc3C(F)(F)F)c(Cl)cc2F)c1Cl [Compound 2-2] ... 15
O=c1cc2n(c(=O)n1-c1cc(Oc3ncccn3)c(Cl)cc1F)CCC2 [Compound 5-12] ... 80
Cn1nc(-c2cc(Oc3cccc(F)n3)c(Cl)cc2F)c(Cl)c1C(F)(F)F [Compound 1-5] ... 0

Give crop damage rating SOY for all molecules that follow.
1. O=c1n(CCCF)nnn1-c1cc(Oc2ncc(Br)cn2)c(Cl)cc1F [Compound 6-16]
2. Cn1nc(-c2cc(Oc3ncccc3C#N)c(Cl)cc2F)c(Cl)c1C(F)(F)F [Compound 1-3]
3. O=c1n(CCCF)nnn1-c1cc(Oc2ccc(C(F)(F)F)cn2)c(Cl)cc1F [Compound 6-8]
4. O=C1C2=CCCCN2C(=O)N1c1cc(Oc2ncccc2C(F)(F)F)c(Cl)cc1F [Compound 4-2]
5. CCN1CC(=O)N(c2cc(Oc3ncccc3C(F)(F)F)c(Cl)cc2F)C1=O [Compound 8-1]
6. O=c1n(CCCF)nnn1-c1cc(Oc2ncccc2[N+](=O)[O-])c(Cl)cc1F [Compound 6-2]

1: 10; 2: 95; 3: 0; 4: 0; 5: 0; 6: 15

Give crop damage rating SOY for all molecules that follow.
1. N#Cc1cccnc1Oc1cc(-n2nnn(CCCF)c2=O)c(F)cc1Cl [Compound 6-4]
2. CCN1CC(=O)N(c2cc(Oc3ncccn3)c(Cl)cc2F)C1=O [Compound 8-2]
3. Nc1ccc(Oc2cc(-n3c(=O)n4n(c3=S)CCCC4)c(F)cc2Cl)c(C(F)(F)F)c1 [Compound 8-15]
4. Cc1nsc(Oc2cc(-n3nnn(CCCF)c3=O)c(F)cc2Cl)c1[N+](=O)[O-] [Compound 6-17]

[20, 20, 0, 0]

---

# System: sicklepod (Cassia obtusifolia, CASOB)
# procedureText: Pre-emerge greenhouse herbicide test, phytotoxicity rating
# Assay type: in vivo
# assayConditions: Rate 250 g al/ha, 14 days after application, rating scale 0-100
assayMetric: CASOB phytotoxicity rating
Give bare numbers.

Illustrative cases are given below, each with its answer.
CCOC(=O)C(C)Oc1ccc(Oc2cc(-n3c(=O)n4n(c3=O)CCCC4)c(F)cc2Cl)c([N+](=O)[O-])c1 (stereo not shown) ... 0
O=c1n(-c2cc(Oc3ncc([N+](=O)[O-])s3)c(Cl)cc2F)c(=S)n2n1CCCC2 ... 70
CCOC(=O)C(C)Oc1ccc(Oc2cc(-n3c(=O)n4n(c3=S)CCCC4)c(F)cc2Cl)c(N)c1 (stereo not shown) ... 20
CCOC(=O)C(C)Oc1ccc(Oc2cc(-n3c(=O)n4n(c3=S)CCCC4)c(F)cc2Cl)c([N+](=O)[O-])c1 (stereo not shown) ... 0
Nc1cccnc1Oc1cc(-n2c(=O)n3n(c2=S)CCCC3)c(F)cc1Cl ... 80

Give CASOB phytotoxicity rating for all compounds that follow.
1. CCOC(=O)C(C)Oc1cc([N+](=O)[O-])c(Oc2cc(-n3c(=O)n4n(c3=S)CCCC4)c(F)cc2Cl)cc1Cl (stereo not shown)
2. CSc1cccnc1Oc1cc(-n2c(=O)n3n(c2=S)CCCC3)c(F)cc1Cl

1. 0
2. 30

---

# Test system: Johnsongrass (Sorghum halepense, SORHA)
# procedureText: Post-emerge greenhouse herbicide test, phytotoxicity rating
# Assay type: in vivo
# assayConditions: 63 g al/ha, 14 days after application
assayMetric: SORHA phytotoxicity rating (0-100)
Numbers only.

Nc1ccc(Oc2cc(-n3c(=O)n4n(c3=S)CCCC4)c(F)cc2Cl)c(C(F)(F)F)c1 [Compound 8-15] ... 0

Give SORHA phytotoxicity rating (0-100) for all molecules that follow.
1. Cn1nc(-c2cc(Oc3ccc(C#N)cn3)c(Cl)cc2F)c(Cl)c1C(F)(F)F [Compound 1-4]
2. Cn1nc(-c2cc(Oc3cccc(F)n3)c(Cl)cc2F)c(Cl)c1C(F)(F)F [Compound 1-5]

40
30

Per the records, this molecule ( O=c1n(CCCF)nnn1-c1cc(Oc2ncccn2)c(Cl)cc1Cl [Compound 6-14] ) has SORHA phytotoxicity rating (0-100) equal to 30
